Target: T1, TNFR1 (Homo sapiens, UniProt P19438)
T1 chain: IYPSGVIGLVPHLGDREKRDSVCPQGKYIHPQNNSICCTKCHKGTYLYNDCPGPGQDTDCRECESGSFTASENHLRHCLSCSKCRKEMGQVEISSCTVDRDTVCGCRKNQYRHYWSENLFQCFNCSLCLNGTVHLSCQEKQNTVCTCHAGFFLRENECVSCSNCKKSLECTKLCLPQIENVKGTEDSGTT
Test: yeast display SC50
READOUT_LABEL: apparent Kd (screen) (nM)

Examples with their reported apparent Kd (screen) follow.
BINDER	apparent Kd (screen), nM
E60C (designed binder) SMEEEVEKAAKEYEKKKKEAIEKHLEKLKAKDKEAAERFLKELEEAAKEYAKDEAKTMSCEEAKRRAKKYKEKVLLSELSEEEQKEIKEAEEKLVRTILKYVEEAAK	1.05
L76I (designed binder) SMEEEVEKAAKEYEKKKKEAIEKHLEKLKAKDKEAAERFLKELEEAAKEYAKDEAKTMSEEEAKRRAKKYKEKVLISELSEEEQKEIKEAEEKLVRTILKYVEEAAK	1.16

1 = A36W (designed binder) SMEEEVEKAAKEYEKKKKEAIEKHLEKLKAKDKEAWERFLKELEEAAKEYAKDEAKTMSEEEAKRRAKKYKEKVLLSELSEEEQKEIKEAEEKLVRTILKYVEEAAK
2 = I98C (designed binder) SMEEEVEKAAKEYEKKKKEAIEKHLEKLKAKDKEAAERFLKELEEAAKEYAKDEAKTMSEEEAKRRAKKYKEKVLLSELSEEEQKEIKEAEEKLVRTCLKYVEEAAK
3 = K100V (designed binder) SMEEEVEKAAKEYEKKKKEAIEKHLEKLKAKDKEAAERFLKELEEAAKEYAKDEAKTMSEEEAKRRAKKYKEKVLLSELSEEEQKEIKEAEEKLVRTILVYVEEAAK
IN: Exam item: list the entries in increasing order of apparent Kd (screen). Sort the labels as requested; that list is your answer.
OUT: 1, 3, 2

1 = K11Q (designed binder) SMEEEVEKAAQEYEKKKKEAIEKHLEKLKAKDKEAAERFLKELEEAAKEYAKDEAKTMSEEEAKRRAKKYKEKVLLSELSEEEQKEIKEAEEKLVRTILKYVEEAAK
2 = M58E (designed binder) SMEEEVEKAAKEYEKKKKEAIEKHLEKLKAKDKEAAERFLKELEEAAKEYAKDEAKTESEEEAKRRAKKYKEKVLLSELSEEEQKEIKEAEEKLVRTILKYVEEAAK
3 = R65E (designed binder) SMEEEVEKAAKEYEKKKKEAIEKHLEKLKAKDKEAAERFLKELEEAAKEYAKDEAKTMSEEEAKERAKKYKEKVLLSELSEEEQKEIKEAEEKLVRTILKYVEEAAK
IN: Please list these binders in decreasing order of apparent Kd (screen). Sort the labels as requested; that list is your answer.
OUT: 2, 3, 1
(2: 8.56 nM, 3: 1.54 nM, 1: 0.446 nM)

a = T57Q (designed binder) SMEEEVEKAAKEYEKKKKEAIEKHLEKLKAKDKEAAERFLKELEEAAKEYAKDEAKQMSEEEAKRRAKKYKEKVLLSELSEEEQKEIKEAEEKLVRTILKYVEEAAK
b = A20D (designed binder) SMEEEVEKAAKEYEKKKKEDIEKHLEKLKAKDKEAAERFLKELEEAAKEYAKDEAKTMSEEEAKRRAKKYKEKVLLSELSEEEQKEIKEAEEKLVRTILKYVEEAAK
IN: Kindly compare a with b and tell me which has the lower apparent Kd (screen) figure. Answer by quoting the chosen item's label.
OUT: a

1 = M2P (designed binder) SPEEEVEKAAKEYEKKKKEAIEKHLEKLKAKDKEAAERFLKELEEAAKEYAKDEAKTMSEEEAKRRAKKYKEKVLLSELSEEEQKEIKEAEEKLVRTILKYVEEAAK
2 = K18Q (designed binder) SMEEEVEKAAKEYEKKKQEAIEKHLEKLKAKDKEAAERFLKELEEAAKEYAKDEAKTMSEEEAKRRAKKYKEKVLLSELSEEEQKEIKEAEEKLVRTILKYVEEAAK
IN: Kindly compare 1 with 2 and tell me which has the lower apparent Kd (screen) figure. Answer by quoting the chosen item's label.
OUT: 1
